This listing pairs compounds with measured Foxtail, Giant plant response rating.
Tested on: giant foxtail
measurement notes: Test B pre-/postemergence herbicide test
Assay type: in vivo, Setaria faberi
run parameters: postemergence, 125 g ai/ha; visual rating, scale 0 (no effect) to 100 (complete control)
metric name: Foxtail, Giant plant response rating

• CCc1cn(C(C)(C)C)nc1C(=O)Nc1cc(C(=O)N(CC)CC)ccn1 [Compound 234] = 0
• C=CCN(C)C(=O)c1cccc(NC(=O)c2cc(C(C)(C)C)nn2CC)c1 [Compound 285] = 30
• CC(=NO)c1cc(NC(=O)c2cc(C(C)(C)C)nn2C)ccc1F [Compound 109] = 20
• CCN(CC)C(=O)c1cc(NC(=O)c2cc(C(C)(C)C)nn2CC)c(F)cc1F [Compound 253] = 0
• CCc1nc(C(C)(C)C)sc1C(=O)Nc1cc(C(=O)N(CC)CC)ccc1F [Compound 230] = 10
• CCn1nc(C(C)(C)C)c(F)c1C(=O)Nc1cccc(C(=O)N(C)C)n1 [Compound 274] = 20
• CCOC(=O)c1cccc(NC(=O)c2cn(C(C)(C)C)nc2CC)c1 [Compound 186] = 10
• CCOC(=O)c1cc(NC(=O)c2cc(C(C)(C)C)nn2CC)ccc1C [Compound 99] = 10
• CCc1nc(C(C)(C)C)sc1C(=O)Nc1cccc(C(=O)NCC(C)C)c1 [Compound 211] = 10
